Dear all, I have gathered published pKi values for Alpha-1D adrenergic receptor (Homo sapiens); the list follows.
FYI, pKi means -log10 of a concentration in mol per litre.

Form: Entry = `CC(C)Oc1ccccc1N1CCN([C@H]2CC[C@@H](NC(=O)Nc3ccccc3Cl)CC2)CC1` | System = Alpha-1D adrenergic receptor (Homo sapiens) | pKi = ____ 7.34

Form: Entry = `O=S(=O)(N[C@H]1CC[C@@H](N2CCN(c3ncccc3OCC3CC3)CC2)CC1)c1cc(Cl)ccc1F` | System = Alpha-1D adrenergic receptor (Homo sapiens) | pKi = ____ 7.36

Form: Entry = CC(C)Oc1ccccc1N1CCN(C2CCC(N3C(=O)c4cccnc4C3=O)CC2)CC1 (mixture of isomers) | System = Alpha-1D adrenergic receptor (Homo sapiens) | pKi = ____ 8.84

Form: Entry = `O=C(NCCCNC(=O)[C@@H]1[C@H]2C[C@H]3c4[nH]c5ccccc5c4CCN3C[C@@H]2CC[C@@H]1O)[C@@H]1[C@H]2C[C@H]3c4[nH]c5ccccc5c4CCN3C[C@@H]2CC[C@@H]1O` | System = Alpha-1D adrenergic receptor (Homo sapiens) | pKi = ____ 5.11

Form: Entry = `COc1ccc(S(=O)(=O)N[C@H]2CC[C@@H](N3CCN(c4ncccc4OCC4CC4)CC3)CC2)cc1OC` | System = Alpha-1D adrenergic receptor (Homo sapiens) | pKi = ____ 7.19

Form: Entry = `COc1ccc(Cl)cc1NC(=O)N[C@H]1CC[C@@H](N2CCN(c3ccccc3OC(C)C)CC2)CC1` | System = Alpha-1D adrenergic receptor (Homo sapiens) | pKi = ____ 7.19

Form: Entry = `CC(C)Oc1ccccc1N1CCN([C@H]2CC[C@H](NC(=O)Nc3cc(F)cc(F)c3)CC2)CC1` | System = Alpha-1D adrenergic receptor (Homo sapiens) | pKi = ____ 9.00

Form: Entry = `COc1ccc(C)cc1NC(=O)N[C@H]1CC[C@@H](N2CCN(c3ccccc3OC(C)C)CC2)CC1` | System = Alpha-1D adrenergic receptor (Homo sapiens) | pKi = ____ 8.19

Form: Entry = `COc1cc2nc(N3CCN(C(=O)c4ccco4)[C@H](C(=O)NC(C)(C)C)C3)nc(N)c2cc1OC` | System = Alpha-1D adrenergic receptor (Homo sapiens) | pKi = ____ 7.01

Form: Entry = `CC(C)Oc1ccccc1N1CCN([C@H]2CC[C@H](NC(=O)Nc3ccccc3Cl)CC2)CC1` | System = Alpha-1D adrenergic receptor (Homo sapiens) | pKi = ____ 8.52

Form: Entry = CC(C)Oc1ccccc1N1CCN(C2CCC(N3C(=O)c4cc(Cl)c(Cl)cc4C3=O)CC2)CC1 (mixture of isomers) | System = Alpha-1D adrenergic receptor (Homo sapiens) | pKi = ____ 9.51

Form: Entry = CC(C)Oc1ccccc1N1CCN(C2CCC(NC(=O)Nc3ccccc3OC(F)(F)F)CC2)CC1 (mixture of isomers) | System = Alpha-1D adrenergic receptor (Homo sapiens) | pKi = ____ 7.87

Form: Entry = `COc1cc2nc(N3CCN[C@H](C(=O)NC(C)(C)C)C3)nc(N)c2cc1OC` | System = Alpha-1D adrenergic receptor (Homo sapiens) | pKi = ____ 6.95

Form: Entry = `COc1ccc(NC(=O)N[C@H]2CC[C@H](N3CCN(c4ccccc4OC(C)C)CC3)CC2)c(OC)c1` | System = Alpha-1D adrenergic receptor (Homo sapiens) | pKi = ____ 7.70

Form: Entry = `CC(C)Oc1ccccc1N1CCN([C@H]2CC[C@@H](NC(=O)Nc3c(Cl)cc(Cl)cc3Cl)CC2)CC1` | System = Alpha-1D adrenergic receptor (Homo sapiens) | pKi = ____ 7.60
